# Read-out: Pselectin, SELP (gene 6403)
# Assay protocol: BSK_4H_Pselectin: BioMAP Diversity Plus: 4H Assay for Pselectin Biomarker Activity (AID 2283026)
# Test conditions: primary human endothelial cells (HUVEC); actives raise or lower the signal
Activity calls are given as the source filed them. How the source made its calls: active means hit-call score of the fitted dose curve at least 0.9, where 1 is the maximum; inactive means score below 0.9.
Hi! Could you answer with just one of these? active, inactive

[ask] Record lookup: outcome of this test for OCC(CO)(CBr)CBr ?
[reply] inactive

[ask] Record lookup: outcome of this test for OCCN1CN(CCO)CN(CCO)C1 ?
[reply] active

[ask] Record lookup: outcome of this test for CCCCC(CC)C(=O)OCCOCCOCCOCCOC(=O)C(CC)CCCC (stereo not given) ?
[reply] inactive

[ask] Record lookup: outcome of this test for CC[N+](CC)(CC)Cc1ccccc1 ?
[reply] inactive

[ask] Record lookup: outcome of this test for CCCCCCCCCCCCCCC ?
[reply] inactive

[ask] Record lookup: outcome of this test for CN(C)c1ccc(C(=C2C=CC(=[N+](C)C)C=C2)c2ccccc2)cc1 ?
[reply] active

[ask] Record lookup: outcome of this test for CCC(C)c1ccccc1O (stereo not given) ?
[reply] inactive

[ask] Record lookup: outcome of this test for Oc1ccc(Cc2ccccc2O)cc1 ?
[reply] inactive

[ask] Record lookup: outcome of this test for Oc1cc2ccccc2cc1O ?
[reply] inactive

[ask] Record lookup: outcome of this test for COCN(COC)c1nc(N(COC)COC)nc(N(COC)COC)n1 ?
[reply] inactive

[ask] Record lookup: outcome of this test for O=C(NO)c1ccccc1 ?
[reply] inactive

[ask] Record lookup: outcome of this test for O=C(CCCN1CCC(O)(c2ccc(Cl)cc2)CC1)c1ccc(F)cc1 ?
[reply] inactive

[ask] Record lookup: outcome of this test for O=C(O)CCC(F)(F)C(F)(F)C(F)(F)C(F)(F)C(F)(F)F ?
[reply] inactive

[ask] Record lookup: outcome of this test for CN(Cc1cnc2nc(N)nc(N)c2n1)c1ccc(C(=O)N[C@@H](CCC(=O)O)C(=O)O)cc1 ?
[reply] inactive

[ask] Record lookup: outcome of this test for C=CC(=C)CC/C=C(\C)CCC=C(C)C ?
[reply] inactive

[ask] Record lookup: outcome of this test for CC1=NN(c2ccccc2)C(=O)C1 ?
[reply] inactive

[ask] Record lookup: outcome of this test for COC1=CC(=O)C[C@@H](C)[C@]12Oc1c(Cl)c(OC)cc(OC)c1C2=O ?
[reply] inactive

[ask] Record lookup: outcome of this test for Cc1ccc(C(=O)c2ccccc2)cc1 ?
[reply] active

[ask] Record lookup: outcome of this test for O=C(NCc1ncc(C(F)(F)F)cc1Cl)c1c(Cl)cccc1Cl ?
[reply] inactive

[ask] Record lookup: outcome of this test for Cc1[nH]nc2c1N=C(c1ccccc1Cl)c1cc([N+](=O)[O-])ccc1N2 ?
[reply] active
